# system: IRAK4 (Homo sapiens)
# methodSummary: biochemical
pIC50: −log10 of the molar value.
quantity: pIC50

I = COc1cc2nc(C3CCOCC3)cn2cc1C(=O)Nc1cccn(CC(F)(F)F)c1=O
II = COc1cc2nc(C3CCOCC3)cn2cc1C(=O)Nc1cnn(C)c1C1CC1
III = CC12CC(c3cn4cc(C(=O)Nc5cnn6cccnc56)nc(OC5CCC5)c4n3)(CO1)C2
query: Exam item: list the entries in increasing order of pIC50. Sort the labels as requested; that list is your answer.
result: II, I, III
(II: 6.51, I: 7.12, III: 8.28)

---

# system: UniProt:Q9NWZ3
# Sequence (Q9NWZ3 1-460): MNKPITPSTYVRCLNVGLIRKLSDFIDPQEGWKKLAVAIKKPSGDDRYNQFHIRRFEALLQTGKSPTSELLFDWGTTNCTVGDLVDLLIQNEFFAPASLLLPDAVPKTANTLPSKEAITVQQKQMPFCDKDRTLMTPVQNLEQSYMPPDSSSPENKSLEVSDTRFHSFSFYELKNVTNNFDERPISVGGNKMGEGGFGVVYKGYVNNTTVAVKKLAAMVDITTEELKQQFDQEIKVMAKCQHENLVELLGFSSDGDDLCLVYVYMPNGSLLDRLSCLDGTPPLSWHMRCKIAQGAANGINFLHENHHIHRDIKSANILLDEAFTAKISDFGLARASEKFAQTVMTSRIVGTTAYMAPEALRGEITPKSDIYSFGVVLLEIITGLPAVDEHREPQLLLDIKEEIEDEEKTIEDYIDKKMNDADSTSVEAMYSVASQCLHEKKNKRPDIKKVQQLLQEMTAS
# methodSummary: biochemical
quantity: IC50 (nM)

molecule | quantityUnit | quantitativeResult
CC(C)Oc1nc2nc(C34COC(C)(C3)C4)cn2cc1C(=O)Nc1ccccn1 | nM | 5.3
COc1cc2nc(C3CCOCC3)cn2cc1C(=O)Nc1cccc(C(C)(F)F)c1 | nM | 41.9
CC12CCC(c3cn4cc(C(=O)Nc5ccn(CC6CC6)n5)c(OC5CCC5)cc4n3)(CO1)C2 (centres unmarked) | nM | 13.5
COc1cc2nc(C3CCOCC3)cn2cc1C(=O)Nc1cccc(Cl)c1F | nM | 15.3
CC(C)Oc1cc2nc(C34COC(C)(C3)C4)cn2cc1C(=O)Nc1cnn2cc(C3CC3)cnc12 | nM | 1.9

A = COc1cccc(NC(=O)c2cn3cc(C4C5COCC54)nc3cc2OC(C)C)n1 (centres unmarked)
B = CC(C)Oc1cc2nc(C34CC(C#N)(C3)C4)cn2cc1C(=O)Nc1cccc(C(F)F)n1
query: Param pair: A , B . Output: the one whose IC50 is numerically greater. Identify your pick by its label.
result: A

The measurements presented in this section are drawn from patent US20230087118A1.
